# Measured On: Aβ42 (Homo sapiens)
# Protocol Text: Th-T (thioflavin-T) assay of Aβ42 aggregation
# Format: biochemical
# Study Conditions: Supplementary Fig. 47 source data; measurement M50 of time course
Entries and their Th-T fluorescence, mean of three wells values follow.
Observable: Th-T fluorescence, mean of three wells

1. C=C1CC[C@H]2[C@]3(C)C[C@H](C=C(C)C)O[C@H]3CC[C@]2(C)[C@@H]1Cc1c(OC)oc(CO)c(C)c1=O
3.962
2. C=C1CCC2C(C)(CC(=O)C=C(C)C)C(O)CCC2(C)C1Cc1c(OC)oc(CO)c(C)c1=O (stereo not shown)
3.566
3. C=C1CC[C@H]2[C@]3(C)C[C@H](C=C(C)C)O[C@H]3CC[C@]2(C)[C@@H]1Cc1c(O)c(C)c(C)oc1=O
3.114
4. C=C1CC[C@H]2[C@]3(C)C[C@H](C=C(C)C)O[C@H]3CC[C@]2(C)[C@@H]1Cc1c(OC)oc(C)c(C)c1=O
4.153

* * *

# Measured On: Aβ42 (Homo sapiens, UniProt P05067)
# Sequence (P05067 672-713): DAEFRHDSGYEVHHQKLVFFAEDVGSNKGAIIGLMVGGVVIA
# Protocol Text: Th-T (thioflavin-T) assay of Aβ42 aggregation
# Assay type: biochemical
# Study Conditions: measurement M10; source data, Ab alone and No Ab as controls
Observable: Th-T assay plate reading, mean of three wells (Supplementary Fig. 47)

1. C=C1CCC2C(C)(CCC=C(C)C)C(O)CCC2(C)C1Cc1c(OC)oc(C)c(C(=O)OC)c1=O (centres unmarked) [Compound 14]
0.3472
2. C=C1CCC2C(C)(CCC=C(C)C)C(=O)CCC2(C)C1Cc1c(O)c(C)c(C)oc1=O (centres unmarked) [Compound 8]
0.4702
3. C=C1CC[C@H]2[C@]3(C)C[C@H](C=C(C)C)O[C@H]3CC[C@]2(C)[C@@H]1Cc1c(OC)oc(C)c(C)c1=O [Compound 24]
0.7586
4. C=C1CCC2C(C)(CCC=C(C)C)C(O)CCC2(C)C1Cc1c(OC)oc(C)c(C)c1=O (centres unmarked) [Compound 15, viridoxin A hydrolysate]
0.8904
5. C=C1CC[C@@H]2[C@](C)(CC[C@H]3O[C@H](C=C(C)C)C[C@@]23C)[C@@H]1Cc1c(OC)oc(CO)c(C)c1=O [Compound 20]
0.5747
6. C=C1CCC2C3(C)CC(C=C(C)C)OC3CCC2(C)C1Cc1c(OC)oc(C)c(C)c1=O (centres unmarked) [Compound 23]
0.5903
7. C=C1CCC2C(C)(CCC=C(C)C)C(O)CCC2(C)C1Cc1c(O)c(C)c(C)oc1=O (centres unmarked) [Compound 4]
0.7395
8. C=C1CC[C@H]2[C@]3(C)C[C@@H](C=C(C)C)O[C@H]3CC[C@]2(C)[C@@H]1Cc1c(OC)oc(CO)c(C)c1=O [Compound 17]
0.9149
9. C=C1CCC2C(C)(CC(=O)C=C(C)C)C(O)CCC2(C)C1Cc1c(OC)oc(C)c(C)c1=O (centres unmarked) [Compound 25]
0.6365
10. C=C1CCC2C(C)(CCC=C(C)C)C(O)CCC2(C)C1Cc1c(OC)oc(CO)c(C(=O)OC)c1=O (centres unmarked) [Compound 13]
0.1743
11. C=C1CC[C@H]2[C@]3(C)C[C@H](C=C(C)C)O[C@H]3CC[C@]2(C)[C@@H]1Cc1c(OC)oc(CO)c(C)c1=O [Compound 18]
0.5956
12. C=C1CC[C@H]2[C@]3(C)C[C@@H](C=C(C)C)O[C@H]3CC[C@]2(C)[C@@H]1Cc1c(O)c(C)c(C)oc1=O [Compound 5, subglutinol A]
0.7213
13. C=C1CCC2C(C)(CC(=O)C=C(C)C)C(O)CCC2(C)C1Cc1c(O)c(C)c(C)oc1=O (centres unmarked) [Compound 7]
0.7067
14. C=C1CCC2C(C)(CCC=C(C)C)C(O)CCC2(C)C1Cc1c(OC)oc(CO)c(C)c1=O (centres unmarked) [Compound 12]
2.214

* * *

# Protocol Text: cytotoxicity in Drosophila DL1 cells
# Format: cell-based
# Study Conditions: Drosophila, DL1 cells (embryonic macrophage-derived), DL1 cells, 10 µM, replicate 2, relative to DMSO 1%; read-out: % viability, viability 2
Observable: viability at 10 µM (%)

1. C=C1CCC2C(C)(CCC=C(C)C)C(O)CCC2(C)C1Cc1c(OC)oc(CO)c(C(=O)OC)c1=O (centres unmarked) [Compound 13]
6.02
2. C=C1CCC2C(C)(CC(=O)C=C(C)C)C(O)CCC2(C)C1Cc1c(O)c(C)c(C)oc1=O (centres unmarked) [Compound 7]
39.8
3. C=C1CC[C@@H]2[C@](C)(CC[C@H]3O[C@H](C=C(C)C)C[C@@]23C)[C@@H]1Cc1c(O)c(C)c(C)oc1=O [Compound 10, higginsianin A]
6.95
4. C=C1CC[C@H]2[C@]3(C)C[C@@H](C=C(C)C)O[C@H]3CC[C@]2(C)[C@@H]1Cc1c(O)c(C)c(C)oc1=O [Compound 5, subglutinol A]
4.2
5. C=C1CCC2C(C)(CCC=C(C)C)C(O)CCC2(C)C1Cc1c(OC)oc(C)c(C(=O)OC)c1=O (centres unmarked) [Compound 14]
5.9
6. C=C1CC[C@@H]2[C@](C)(CC[C@H]3O[C@H](C=C(C)C)C[C@@]23C)[C@@H]1Cc1c(OC)oc(CO)c(C(=O)OC)c1=O [Compound 21]
3.92
7. C=C1CC[C@H]2[C@]3(C)C[C@H](C=C(C)C)O[C@H]3CC[C@]2(C)[C@@H]1Cc1c(O)c(C)c(C)oc1=O [Compound 6, subglutinol B]
7.39
8. C=C1CCC2C3(C)CC(C=C(C)C)OC3CCC2(C)C1Cc1c(OC)oc(C)c(C)c1=O (centres unmarked) [Compound 23]
5.43

* * *

Entries and their Th-T fluorescence of Aβ42 (sheet Fig. 7a), mean of three wells values follow.
# Measured On: Aβ42 (Homo sapiens)
# Protocol Text: Th-T (thioflavin-T) assay of Aβ42 aggregation
# Format: biochemical
# Study Conditions: head suffix _20 (concentration 20); reading M75
Observable: Th-T fluorescence of Aβ42 (sheet Fig. 7a), mean of three wells

1) C=C1CC[C@@H]2[C@](C)(CC[C@H]3O[C@H](C=C(C)C)C[C@@]23C)[C@@H]1Cc1c(OC)oc(CO)c(C)c1=O
3.3567
2) C=C1CCC2C(C)(CCC=C(C)C)C(O)CCC2(C)C1Cc1c(OC)oc(CO)c(C(=O)OC)c1=O (stereo not drawn)
1.056
3) C=C1CCC2C(C)(CCC=C(C)C)C(O)CCC2(C)C1Cc1c(OC)oc(CO)c(C)c1=O (stereo not drawn)
2.104

* * *

Entries and their viability at 0.04 µM values follow.
# Protocol Text: cytotoxicity in Drosophila l(2)mbn cells
# Assay type: cell-based
# Study Conditions: Drosophila, l(2)mbn cells (larval blood cell-derived), 0.04 µM, replicate 1, relative to DMSO 1%, read-out: % viability, viability 1
Observable: viability at 0.04 µM (%)

1) C=C1CC[C@H]2[C@]3(C)C[C@@H](C=C(C)C)O[C@H]3CC[C@]2(C)[C@@H]1Cc1c(OC)oc(CO)c(C)c1=O
35.7
2) C=C1CCC2C3(C)CC(C=C(C)C)OC3CCC2(C)C1Cc1c(OC)oc(C)c(C)c1=O (stereo not drawn)
122
3) C=C1CCC2C(C)(CCC=C(C)C)C(O)CCC2(C)C1Cc1c(OC)oc(C)c(C(=O)OC)c1=O (stereo not drawn)
137
4) C=C1CCC2C(C)(CCC=C(C)C)C(=O)CCC2(C)C1Cc1c(O)c(C)c(C)oc1=O (stereo not drawn)
86
5) C=C1CC[C@@H]2[C@](C)(CC[C@H]3O[C@H](C=C(C)C)C[C@@]23C)[C@@H]1Cc1c(O)c(C)c(C)oc1=O
113
6) C=C1CCC2C(C)(CCC=C(C)C)C(O)CCC2(C)C1Cc1c(OC)oc(CO)c(C(=O)OC)c1=O (stereo not drawn)
144
7) C=C1CCC2C(C)(CCC=C(C)C)C(O)CCC2(C)C1Cc1c(O)c(C)c(C)oc1=O (stereo not drawn)
90.8
8) C=C1CC[C@H]2[C@]3(C)C[C@@H](C=C(C)C)O[C@H]3CC[C@]2(C)[C@@H]1Cc1c(O)c(C)c(C)oc1=O
139
9) C=C1CCC2C(C)(CC(=O)C=C(C)C)C(O)CCC2(C)C1Cc1c(OC)oc(C)c(C)c1=O (stereo not drawn)
124

* * *

# Measured On: UniProtKB P05067
# Protocol Text: Th-T (thioflavin-T) assay of Aβ42 aggregation
# Assay type: biochemical
# Study Conditions: time course, reading M59
Observable: Th-T fluorescence, mean of three wells

1. C=C1CCC2C(C)(CC(=O)C=C(C)C)C(O)CCC2(C)C1Cc1c(OC)oc(C)c(C)c1=O (stereo not drawn) [Compound 25]
3.775
2. C=C1CC[C@H]2[C@]3(C)C[C@H](C=C(C)C)O[C@H]3CC[C@]2(C)[C@@H]1Cc1c(OC)oc(C)c(C)c1=O [Compound 24]
4.1173
3. C=C1CC[C@H]2[C@]3(C)C[C@@H](C=C(C)C)O[C@H]3CC[C@]2(C)[C@@H]1Cc1c(O)c(C)c(C)oc1=O [Compound 5, subglutinol A]
2.7314
